# MEASURED TARGET: MMP-1 (Homo sapiens)
# Sequence (P03956 100-469): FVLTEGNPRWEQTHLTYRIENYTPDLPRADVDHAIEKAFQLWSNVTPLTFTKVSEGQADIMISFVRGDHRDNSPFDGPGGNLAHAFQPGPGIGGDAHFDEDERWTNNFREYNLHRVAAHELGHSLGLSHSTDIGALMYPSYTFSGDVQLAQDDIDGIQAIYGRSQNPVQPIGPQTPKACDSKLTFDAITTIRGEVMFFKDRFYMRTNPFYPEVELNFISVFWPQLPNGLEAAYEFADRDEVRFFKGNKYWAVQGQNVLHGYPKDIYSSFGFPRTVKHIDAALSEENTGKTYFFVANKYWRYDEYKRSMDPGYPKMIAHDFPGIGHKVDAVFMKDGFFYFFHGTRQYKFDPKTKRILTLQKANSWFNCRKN
# EXPERIMENTAL DETAILS: MMP-1 inhibition (thiopeptide or fluorescent peptide substrate)
# CONDITION INFO: read-out: MMP1
Consider the following compounds and their measured inhibition at 10 µM readings.
Write down the numeric answer in % and omit the unit.

COMPOUND	MEASURED TARGET	inhibition at 10 µM [%]
CC#CCOc1ccc(S(=O)(=O)C(C(=O)NO)C(C)C)cc1 (centres unmarked)	MMP-1 (Homo sapiens)	39.6
CC#CCOc1ccc(S(=O)(=O)C(C(=O)NO)C2CCN(Cc3ccc(OC)cc3)CC2)cc1 (centres unmarked)	MMP-1 (Homo sapiens)	9
CC#CCOc1ccc([S+]([O-])[C@H](C(=O)NO)c2ccc(Br)cc2)cc1 (single isomer, unassigned)	MMP-1 (Homo sapiens)	24
CC#CCOc1ccc(S(=O)(=O)C(C(=O)NO)c2ccc(Cl)cc2)cc1 (centres unmarked)	MMP-1 (Homo sapiens)	27.1
CC#CCOc1ccc(SC(C(=O)NO)C(C)C)cc1 (centres unmarked)	MMP-1 (Homo sapiens)	2.8
CC#CCOc1ccc(S(=O)(=O)C(C(=O)NO)C2CCOCC2)cc1 (centres unmarked)	MMP-1 (Homo sapiens)	9
CC#CCOc1ccc([S+]([O-])C(C(=O)NO)c2cccc3ccccc23)cc1 (centres unmarked)	MMP-1 (Homo sapiens)	7

Now look at this entry.
INPUT: // query inhibition at 10 µM value for entry CC#CCOc1ccc(S(=O)(=O)C(C(=O)NO)c2ccc(-c3cccs3)cc2)cc1 (centres unmarked)
OUTPUT: 10

---

# MEASURED TARGET: MMP-13 (Homo sapiens, UniProt P45452)
# EXPERIMENTAL DETAILS: MMP-13 inhibition (thiopeptide or fluorescent peptide substrate)
# Assay type: biochemical
# CONDITION INFO: Table 1; read-out: MMP13 IC50
Consider the following compounds and their measured pIC50 readings.
Give only the number. pIC50 is defined as minus log10 of concentration in molar units.

COMPOUND	pIC50
CC#CCOc1ccc(S(=O)(=O)C(C)(Cc2ccc(-c3ccccc3)cc2)C(=O)NO)cc1 (stereo not drawn) [Example 2]	6.22
CC#CCOc1ccc(S(=O)(=O)C(C)(Cc2cccnc2)C(=O)NO)cc1 (stereo not drawn) [Example 3]	7.16

INPUT: // query pIC50 value for entry CC#CCOc1ccc(S(=O)(=O)C(C)(Cc2ccc(OCCN3CCCCC3)cc2)C(=O)NO)cc1 (stereo not drawn) [Example 1]
OUTPUT: 6.70

INPUT: // query pIC50 value for entry CC#CCOc1ccc(SC(CCCCCC)C(=O)NO)cc1 (stereo not drawn) [Example 6]
OUTPUT: 5.70

INPUT: // query pIC50 value for entry CC#CCOc1ccc([S@+]([O-])[C@@H](CCCCCC)C(=O)NO)cc1 [Example 7]
OUTPUT: 6.05

INPUT: // query pIC50 value for entry CC#CCOc1ccc([S@@+]([O-])[C@@H](CCCCCC)C(=O)NO)cc1 [Example 8]
OUTPUT: 6.82

---

# MEASURED TARGET: MMP-13 (Homo sapiens, UniProt P45452)
# EXPERIMENTAL DETAILS: MMP-13 inhibition (thiopeptide or fluorescent peptide substrate)
# Format: biochemical
# CONDITION INFO: % @ 10µM per footnote a; read-out: MMP13
Label Y when inhibition at 10 µM >= 30%; otherwise N.

Worked examples follow.
COMPOUND	ANSWER LABEL
CC#CCOc1ccc(SC(C(=O)NO)c2ccc(OC)cc2)cc1 (stereo not drawn) [Example 76]	N
CC#CCOc1ccc(S(=O)(=O)C(C(=O)NO)C2CCN(C(=O)OC(C)(C)C)CC2)cc1 (stereo not drawn) [Example 117]	Y
CC#CCOc1ccc(S(=O)(=O)C(C(=O)NO)c2ccc(OCC)cc2)cc1 (stereo not drawn) [Example 102]	Y
CC#CCOc1ccc(S(=O)(=O)C(C(=O)NO)c2ccc(F)cc2)cc1 (stereo not drawn) [Example 97]	Y
CC#CCOc1ccc([S+]([O-])[C@H](C(=O)NO)c2ccc(Br)cc2)cc1 (single isomer, unassigned) [Example 86]	Y

INPUT: Tell me whether inhibition at 10 µM is at least 30% here: CC#CCOc1ccc([S+]([O-])C(C(=O)NO)c2ccc(OCC)cc2)cc1 (stereo not drawn) [Example 101]
OUTPUT: Y

INPUT: Tell me whether inhibition at 10 µM is at least 30% here: CC#CCOc1ccc(SC(C(=O)NO)c2cccc(Br)c2)cc1 (stereo not drawn) [Example 103]
OUTPUT: N

INPUT: Tell me whether inhibition at 10 µM is at least 30% here: CC#CCOc1ccc([S+]([O-])[C@@H](C(=O)NO)c2ccccc2)cc1 (stereo partly drawn) [Example 112]
OUTPUT: N
